Biological target: recombinant human secreted phospholipase A2 (sPLA2) (Homo sapiens, UniProt P14555)
Sequence (P14555 21-144): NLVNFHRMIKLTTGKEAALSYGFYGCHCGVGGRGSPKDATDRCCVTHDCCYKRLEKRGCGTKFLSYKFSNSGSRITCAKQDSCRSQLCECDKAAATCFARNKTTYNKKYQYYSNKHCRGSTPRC
Experiment: chromogenic assay for inhibitors of recombinant human secreted phospholipase A2
Type: biochemical
Settings: diheptanoyl thio-PC substrate 1 mM, Triton X-100 mixed micelles, pH 7.5, 40° C. for 30 minutes, absorbance at 405 nm, triplicate
Consider the following molecules; for each one, report its log10 IC50.
Reminder: these figures are log10 of reported IC50, in µM before transformation.

Problem: Would you kindly share the measured log10 IC50 for Cc1c(C(=O)C(N)=O)c2c(OCC(=O)O)cc3ccccc3c2n1Cc1cccc(-c2ccc(F)cc2)c1 [Example 6] ?
Result: -1.68

Problem: Would you kindly share the measured log10 IC50 for CCc1c(C(=O)C(N)=O)c2c(OCC(=O)O)cc3ccccc3c2n1Cc1ccccc1 [Example 2] ?
Result: -2.00

Problem: Would you kindly share the measured log10 IC50 for CCc1c(C(=O)C(N)=O)c2c(OCC(=O)OC)cc3ccccc3c2n1Cc1ccccc1 [Example 1, hemihydrate] ?
Result: -1.32

Problem: Would you kindly share the measured log10 IC50 for COC(=O)COc1cc2ccccc2c2c1c(C(=O)C(N)=O)c(C)n2CC1CCCCC1 [Example 3] ?
Result: -0.83

Problem: Would you kindly share the measured log10 IC50 for COC(=O)COc1cc2ccccc2c2c1c(C(=O)C(N)=O)c(C)n2Cc1cccc(-c2ccc(F)cc2)c1 [Example 5] ?
Result: -0.75

Problem: Would you kindly share the measured log10 IC50 for Cc1c(C(=O)C(N)=O)c2c(OCC(=O)O)cc3ccccc3c2n1CC1CCCCC1 [Example 4] ?
Result: -1.96
